# Experiment Notes: Conversion rate of salt-form prodrugs to parent compound in mouse plasma
# Type: in vitro ADME
# Condition Notes: conversion to Compound 1, mouse plasma, 37 °C, 4 h
Listing of entries alongside the reported Release rate.
All answers are understood in %, so give the number only.

Solved cases (5 shown):
CCOC(=O)[C@@H]1CCCN1C[C@@H]1C(=O)O[C@H]2[C@H]1CC[C@@]1(C)C[C@]13CC[C@@](C)(O)[C@H]23 [compound 23] :: 26.8
C[C@@]12CC[C@@H]3[C@H](OC(=O)[C@H]3CN3CCC(N4CCOCC4)CC3)[C@@H]3[C@]1(CC[C@@]3(C)O)C2 [compound 36] :: 26.0
C[C@@]12CC[C@@H]3[C@H](OC(=O)[C@H]3CN3CCC3)[C@@H]3[C@]1(CC[C@@]3(C)O)C2 [compound 33] :: 26.0
C[C@@]12CC[C@@H]3[C@H](OC(=O)[C@H]3CN3CCC(N4CCCCC4)CC3)[C@@H]3[C@]1(CC[C@@]3(C)O)C2 [compound 35] :: 26.4
C[C@@]12CC[C@@H]3[C@H](OC(=O)[C@H]3CN3CC4CCCC4C3)[C@@H]3[C@]1(CC[C@@]3(C)O)C2 (stereo partly drawn) [compound 32] :: 25.2

Next, consider the following compound.
I am curious: what Release rate value has been reported for CCCN(CCC)C[C@@H]1C(=O)O[C@H]2[C@H]1CC[C@@]1(C)C[C@]13CC[C@@](C)(O)[C@H]23 [compound 29] ?
24.6

----------
# Experiment Notes: Conversion rate of salt-form prodrugs to parent compound in mouse plasma
# Assay type: in vitro ADME
# Condition Notes: conversion to Compound 1, mouse plasma, 37 °C, 12 h
# Experimental: Pharmaceutically acceptable salts of guaiane-type sesquiterpene lactone derivatives were selected and evaluated for their conversion rates to Compound 1 and Compound 83 in plasma and HEPES buffer, with results shown in Tables 2-1, 2-2, 3-1, and 3-2. Plasma Preparation: Collect mouse plasma into an EP tube pre-loaded with sodium heparin, centrifuge at 8000 rpm for 10 minutes at 4°C, and then collect the supernatant. […]
Listing of entries alongside the reported Release rate.
Give the value; after it, write the unit.

Solved cases (8 shown):
CN(C)C[C@@H]1C(=O)O[C@H]2[C@H]1CC[C@@]1(C)C[C@]13CC[C@@](C)(O)[C@H]23 [compound 42] :: 47.2%
C[C@@]12CC[C@@H]3[C@H](OC(=O)[C@H]3CN3CCC(N4CCOCC4)CC3)[C@@H]3[C@]1(CC[C@@]3(C)O)C2 [compound 36] :: 52.1%
CN(C)C[C@@H]1C(=O)O[C@H]2[C@H]1CC[C@@]1(C)C[C@]13CC[C@@](C)(O)[C@H]23 [compound 41] :: 54.8%
C[C@@]12CC[C@@H]3[C@H](OC(=O)[C@H]3CN3CCC4(CC3)CC4)[C@@H]3[C@]1(CC[C@@]3(C)O)C2 [compound 37] :: 67.8%
C[C@@]12CC[C@@H]3[C@H](OC(=O)[C@H]3CN3CC4CCCC4C3)[C@@H]3[C@]1(CC[C@@]3(C)O)C2 (stereo partly drawn) [compound 32] :: 51.4%
C[C@@]12CC[C@@H]3[C@H](OC(=O)[C@H]3CN3CCC(N4CCCCC4)CC3)[C@@H]3[C@]1(CC[C@@]3(C)O)C2 [compound 35] :: 52.5%
CN(C)C[C@@H]1C(=O)O[C@H]2[C@H]1CC[C@@]1(C)C[C@]13CC[C@@](C)(O)[C@H]23 [compound 40] :: 52.6%
C[C@@]12CC[C@@H]3[C@H](OC(=O)[C@H]3CN3CCCCC3)[C@@H]3[C@]1(CC[C@@]3(C)O)C2 [compound 24] :: 57.9%

Next, consider the following compound.
I am curious: what Release rate value has been reported for CCN(CC)C[C@@H]1C(=O)O[C@H]2[C@H]1CC[C@@]1(C)C[C@]13CC[C@@](C)(O)[C@H]23 [compound 28] ?
49.1%
